test system: KM12 colon; assay: NCI tumour cell line growth inhibition, 48 h
Assay endpoint: TGI

Some compounds with known TGI results, for comparison:
compound=Cc1ccc(N(C)S(=O)(=O)c2ccccc2[N+](=O)[O-])cc1 target_of_assay="KM12 colon" meas_value="> 100 µM"
compound=Cc1nc2sccn2c1/C=C1/C(=O)Nc2cccc(Cl)c21 target_of_assay="KM12 colon" meas_value="> 100 µM"
compound=CCc1ccc2c(c1)C(=O)c1c-2n(CCCN=[N+]=[N-])c(=O)c2cc(OC)c(OC)cc12 target_of_assay="KM12 colon" meas_value="> 100 µM"
compound="COc1ccc(COC2CC(OC)OC(C)C2OC(=O)c2ccccc2)cc1 (stereo not given)" target_of_assay="KM12 colon" meas_value="> 100 µM"

Input line: Fill in the recorded TGI for this compound, with KM12 colon as test system: `O=C(N/N=C/c1ccccc1)c1cccc2nc3ccccc3nc12`
Output line: > 100 µM

Input line: Fill in the recorded TGI for this compound, with KM12 colon as test system: `COc1ccc(C(=O)/C=C/c2cccc(Nc3ccnc4cc(Cl)ccc34)c2)cc1`
Output line: > 100 µM

Input line: Fill in the recorded TGI for this compound, with KM12 colon as test system: `Cc1ccc(N/C(SCc2ccccc2)=C(\C(Cl)=C(Cl)Cl)[N+](=O)[O-])c(C)c1`
Output line: > 100 µM

Input line: Fill in the recorded TGI for this compound, with KM12 colon as test system: COC(=O)CC1c2ccccc2N2C(=O)Cc3c([nH]c4ccccc34)C12 (stereo not given)
Output line: > 100 µM

Input line: Fill in the recorded TGI for this compound, with KM12 colon as test system: `O=CN1CCN(C(=O)c2ccc(Cl)c(Cl)c2)C1=S`
Output line: 30.3 µM

Input line: Fill in the recorded TGI for this compound, with KM12 colon as test system: `O=S(=O)(c1cccc2c(I)cccc12)N1CCCNCC1`
Output line: 33.9 µM
